Could you please report measured chromatographic logP for the items listed next?
Method notes: logP determination by HPLC on reversed-phase columns (C 18), EEC Directive 79/831 Annex V.A8
Type: physicochemical
Give your answer as a number; write no unit.

**Q:** Need chromatographic logP of COC(=O)N(C)NC(=O)c1cc(Cl)cc(Cl)c1NC(=O)c1cc(Cn2nc(OC)n(C)c2=O)nn1-c1ncccc1Cl , thanks.
**A:** 1.9

**Q:** Need chromatographic logP of COC(=O)N(C)NC(=O)c1cc(Cl)cc(C)c1NC(=O)c1cc(Cn2cc(C(F)(F)F)nn2)nn1-c1ncccc1Cl , thanks.
**A:** 2.61

**Q:** Need chromatographic logP of COC(=O)N(C)NC(=O)c1cc(C#N)cc(C)c1NC(=O)c1cc(Cn2nnc(C(F)(F)F)n2)nn1-c1ncccc1Cl , thanks.
**A:** 2.63

**Q:** Need chromatographic logP of COC(=O)N(C)NC(=O)c1cc(F)cc(C)c1NC(=O)c1cc(Cn2nnc(C(F)F)n2)nn1-c1ncccc1Cl , thanks.
**A:** 2.19

**Q:** Need chromatographic logP of COC(=O)N(C)NC(=O)c1cc(Cl)cc(C)c1NC(=O)c1cc(Cn2cc([N+](=O)[O-])c(C(F)(F)F)n2)nn1-c1ncccc1Cl , thanks.
**A:** 3.07

**Q:** Need chromatographic logP of COC(=O)NNC(=O)c1cc(Cl)cc(C)c1NC(=O)c1cc(Cn2cc(C(C)(C)C)nn2)nn1-c1ncccc1Cl , thanks.
**A:** 2.38

**Q:** Need chromatographic logP of COC(=O)N(C)NC(=O)c1cc(Cl)cc(Cl)c1NC(=O)c1cc(Cn2nc(C(F)(F)F)nc2C)nn1-c1ncccc1Cl , thanks.
**A:** 2.51

These data points were gathered from patent US8410106B2.
